From: patent US6906035B2

- Test system: S. aureus
- method-notes: MIC, broth dilution in LB-S
- Format: cell-based
- run-parameters: K147; MBI 29 and MBI21 derivatives
Ends that are not written are not given here.

[
  {
    "sequence-chain": "KKSFFKKLTSVASSVLS [MBI21A14]",
    "MIC K147": ">128 µg/mL"
  },
  {
    "sequence-chain": "KWWRRALQGLKTAGPAIQSVLNK [MBI21A2]",
    "MIC K147": ">128 µg/mL"
  },
  {
    "sequence-chain": "KKWWRRVLSGLKTAGPAIQSVLNK [MBI21A1]",
    "MIC K147": ">128 µg/mL"
  }
]

---

- Test system: S. aureus
- method-notes: MIC, broth dilution in LB-S
- Assay type: cell-based
- run-parameters: SAP; MBI 29 and MBI21 derivatives
Ends that are not written are not given here.

[
  {
    "sequence-chain": "KKWWRRVLSGLKTAGPAIQSVLNK [MBI21A1]",
    "MIC SAP": ">128 µg/mL"
  },
  {
    "sequence-chain": "KWWRRALQGLKTAGPAIQSVLNK [MBI21A2]",
    "MIC SAP": ">128 µg/mL"
  },
  {
    "sequence-chain": "KKSFFKKLTSVASSVLS [MBI21A14]",
    "MIC SAP": ">128 µg/mL"
  }
]
